assayDetails: Toxicity liver stage against HepG2, at 10uM
Format: cell-based
Set-up: test concentration 10 uM, cell line HepG2-A16-CD81EGFP
conditionSet: human, HepG2-A16-CD81EGFP cells; read-out: INHIBITION
metric: cytotoxicity at 10 µM (%)
Kindly provide the numeric value in % only, without the unit symbol.

[[record]]
molecule = "Cc1cc(C)n(CC2CCCN2C(=O)CCc2nccs2)n1 (stereo unspecified)"
metric = "cytotoxicity at 10 µM"
unitssymbol = "%"
reportedvalue = -7.07

[[record]]
molecule = "O=C(Nc1cc(-c2cccnc2)no1)C1CCCCC1"
metric = "cytotoxicity at 10 µM"
unitssymbol = "%"
reportedvalue = 0.171

[[record]]
molecule = "O=C(CCN1CCOC(C(F)(F)F)C1)NCc1cccc(Cl)c1 (stereo unspecified)"
metric = "cytotoxicity at 10 µM"
unitssymbol = "%"
reportedvalue = 2.04

[[record]]
molecule = "CSc1ccc(-c2nc(CN3CCCC(CNC(C)=O)C3)c(C)o2)cc1 (stereo unspecified)"
metric = "cytotoxicity at 10 µM"
unitssymbol = "%"
reportedvalue = 2.32

[[record]]
molecule = "CCC(NC(=O)C1CCN(S(C)(=O)=O)CC1)c1ccc(C)c(C)c1 (stereo unspecified)"
metric = "cytotoxicity at 10 µM"
unitssymbol = "%"
reportedvalue = -8.06


Memo: `Cc1ncc(C(=O)NCCNc2ncccn2)s1` , reported cytotoxicity at 10 µM: 3.79

Memo: `Cc1nc(O)c2nnn(C[C@H]3CCCN3C(=O)C3CCCC3)c2n1` , reported cytotoxicity at 10 µM: -26.9

Memo: `CC(=O)Nc1cccc(C(=O)N2CCc3c(nc(N(C)C)[nH]c3=O)C2)c1` , reported cytotoxicity at 10 µM: 5.9

Memo: CN(Cc1cnn(C)c1)C(=O)CN1CCCCC1Cn1cncn1 (stereo unspecified) , reported cytotoxicity at 10 µM: 17.5

Memo: `Cn1nccc1C(=O)N1CCC(n2cc(-c3ccsc3)nn2)CC1` , reported cytotoxicity at 10 µM: -3.44

Memo: `CCc1nnc(SCC(=O)N2C[C@H]3CC[C@@H](C2)N(CC=C(C)C)C3)[nH]1` , reported cytotoxicity at 10 µM: -6.18
